From: patent US11332459B2

Target: human TRPC6 (Homo sapiens, UniProt Q9Y210)
Sequence (Q9Y210 1-931): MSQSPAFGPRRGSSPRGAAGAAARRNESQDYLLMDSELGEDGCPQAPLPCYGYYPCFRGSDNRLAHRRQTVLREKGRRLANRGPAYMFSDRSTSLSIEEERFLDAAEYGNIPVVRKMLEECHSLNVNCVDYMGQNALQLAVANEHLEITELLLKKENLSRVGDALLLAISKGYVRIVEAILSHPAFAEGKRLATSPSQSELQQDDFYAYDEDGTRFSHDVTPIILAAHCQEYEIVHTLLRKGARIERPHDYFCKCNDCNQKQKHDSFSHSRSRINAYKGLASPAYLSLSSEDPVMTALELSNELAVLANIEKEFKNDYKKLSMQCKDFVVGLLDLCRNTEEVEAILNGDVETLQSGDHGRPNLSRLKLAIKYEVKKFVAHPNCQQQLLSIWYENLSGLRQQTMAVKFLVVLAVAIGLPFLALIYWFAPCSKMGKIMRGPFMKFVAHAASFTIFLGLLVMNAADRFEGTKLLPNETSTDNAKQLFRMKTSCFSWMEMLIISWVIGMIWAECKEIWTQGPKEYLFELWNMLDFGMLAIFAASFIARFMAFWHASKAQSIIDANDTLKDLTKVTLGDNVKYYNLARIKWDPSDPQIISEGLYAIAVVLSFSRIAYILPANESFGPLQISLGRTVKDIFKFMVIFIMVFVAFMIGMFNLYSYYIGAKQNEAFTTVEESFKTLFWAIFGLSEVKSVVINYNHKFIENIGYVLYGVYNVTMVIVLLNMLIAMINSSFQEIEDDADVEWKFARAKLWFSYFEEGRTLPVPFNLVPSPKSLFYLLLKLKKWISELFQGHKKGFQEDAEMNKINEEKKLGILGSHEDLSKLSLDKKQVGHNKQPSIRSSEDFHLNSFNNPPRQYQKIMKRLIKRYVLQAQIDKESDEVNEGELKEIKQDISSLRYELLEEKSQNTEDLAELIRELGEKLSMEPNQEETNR
Experiment: TRPC6 calcium flux assay (FLIPR, OAG-stimulated calcium influx)
Conditions: HEK293 cells stably transfected with human TRPC6, read-out: hTRPC6 Potency
pIC50: −log10 of the molar value.
Short version: pIC50 at least 8 is met, less is not met.

CN(C)C(=O)Cn1c(N2CC[C@@H](F)[C@H](N)C2)nc2cc(F)ccc21 [Example 576] :: not met
N#Cc1ccc(Cn2c(N3CC[C@H](F)[C@H](N)C3)nc3ccc(C(F)(F)F)cc32)nc1 [Example 106] :: met
CN(C(=O)Cn1c(N2CC[C@@H](F)[C@H](N)C2)nc2cc(F)c(F)cc21)C1CCS(=O)(=O)CC1 [Example 651] :: not met
N#Cc1ccc(Cn2c(N3CCC[C@H](N)C3)nc3c(Cl)cc(Cl)cc32)nc1 [Example 57] :: met
N#Cc1ccc(Cn2c(N3CC[C@H](F)[C@H](N)C3)nc3ccc(Cl)cc32)nc1 [Example 8] :: met

Query: Reported pIC50 reaches at least 8 for N[C@H]1CCCN(c2nc3ccccc3n2Cc2ccc(C(=O)O)cn2)C1 [Example 434] ?
Reply: not met

Query: Reported pIC50 reaches at least 8 for CCC1CN(C(=O)Cn2c(N3CC[C@@H](F)[C@H](N)C3)nc3cc(F)c(F)cc32)CCO1 (some centres unmarked) [Example 518] ?
Reply: not met

Query: Reported pIC50 reaches at least 8 for CC(c1ccncc1)N(C)C(=O)Cn1c(N2CC[C@@H](F)[C@H](N)C2)nc2cc(F)c(F)cc21 (some centres unmarked) [Example 613] ?
Reply: not met

====

Molecular target: human TRPC6 (Homo sapiens, UniProt Q9Y210)
Sequence (Q9Y210 1-931): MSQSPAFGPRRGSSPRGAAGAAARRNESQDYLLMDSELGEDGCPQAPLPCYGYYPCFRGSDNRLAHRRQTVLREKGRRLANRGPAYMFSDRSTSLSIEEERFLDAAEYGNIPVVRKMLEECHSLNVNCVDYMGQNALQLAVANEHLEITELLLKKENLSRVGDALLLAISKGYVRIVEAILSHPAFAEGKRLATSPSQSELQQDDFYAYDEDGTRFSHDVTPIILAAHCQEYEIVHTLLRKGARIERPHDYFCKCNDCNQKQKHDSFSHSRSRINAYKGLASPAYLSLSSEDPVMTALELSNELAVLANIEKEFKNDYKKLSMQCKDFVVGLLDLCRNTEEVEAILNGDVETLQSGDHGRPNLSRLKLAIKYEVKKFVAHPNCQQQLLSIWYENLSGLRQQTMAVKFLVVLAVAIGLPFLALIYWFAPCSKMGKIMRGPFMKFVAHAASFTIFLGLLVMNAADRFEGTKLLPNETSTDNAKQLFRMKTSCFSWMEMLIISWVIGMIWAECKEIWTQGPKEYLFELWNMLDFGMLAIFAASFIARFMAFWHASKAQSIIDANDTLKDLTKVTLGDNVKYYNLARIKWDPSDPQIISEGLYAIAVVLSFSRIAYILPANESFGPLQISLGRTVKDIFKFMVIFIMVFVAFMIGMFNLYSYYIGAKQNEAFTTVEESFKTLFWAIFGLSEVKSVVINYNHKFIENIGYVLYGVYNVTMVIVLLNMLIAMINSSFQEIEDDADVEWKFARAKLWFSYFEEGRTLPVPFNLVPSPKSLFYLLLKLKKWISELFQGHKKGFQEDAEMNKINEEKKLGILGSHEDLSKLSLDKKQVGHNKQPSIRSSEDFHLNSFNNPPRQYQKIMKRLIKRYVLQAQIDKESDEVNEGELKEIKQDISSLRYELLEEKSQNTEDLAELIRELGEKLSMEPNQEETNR
Experiment: TRPC6 calcium flux assay (FLIPR, OAG-stimulated calcium influx)
Conditions: HEK293 cells stably transfected with human TRPC6, read-out: hTRPC6 Potency
Method: Biological Example 1 TRPC6 Calcium Flux Assay Potency of TRPC6 (Transient receptor potential channel family C6) inhibitors were measured by their inhibition of Calcium influx trigged by […] (1-Oleoyl-2-acetyl-sn-glycerol, Millipore Sigma, O6754) stimulation on HEK293 cells stablely transfected with human TRPC6 using a FLIPR tetra system. […]
Exercise: state measured pIC50 for each of the molecules provided.
Answers are plain numbers, as −log10 of the molar value.

Consider the reported pIC50 for these molecules:
Cc1cc2nc(N3CC[C@@H](F)[C@H](N)C3)n(Cc3ccc(C#N)cn3)c2cc1Cl :: 9.55
Cc1cc2c(cc1F)nc(N1CC[C@@H](F)[C@H](N)C1)n2Cc1ccc(C#N)cn1 :: 9.35
N[C@@H]1CCCN(c2nc3ccccc3n2Cc2ccc(Cl)c(F)c2)C1 :: 5.74

Okay, now this molecule:
Query: Recorded pIC50 for `N[C@@H]1CN(c2nc3cc(F)c(F)cc3n2Cc2cc(-c3cccc(Cl)c3)no2)CC[C@H]1F` , please?
Reply: 6.12

====

Biological target: human TRPC6 (Homo sapiens, UniProt Q9Y210)
Assay: TRPC6 calcium flux assay (FLIPR, OAG-stimulated calcium influx)
Conditions: HEK293 cells stably transfected with human TRPC6, read-out: hTRPC6 Potency
Where a name gives a salt, the structure may show the parent alone.
Exercise: state measured pIC50 for each of the compounds provided.
Numbers only, as −log10 of the molar value.

Consider the reported pIC50 for these compounds:
C[C@@H](c1ccc(Cl)cn1)n1c(N2CC[C@@H](F)[C@H](N)C2)nc2ccc(Cl)cc21 [Example 222, hydrochloride] :: 8.69
Cc1nnc(Cn2c(N3CC[C@@H](F)[C@H](N)C3)nc3cc(F)c(F)cc32)o1 :: 7.03
COCC1CN(C(=O)Cn2c(N3CC[C@@H](F)[C@H](N)C3)nc3cc(F)c(F)cc32)CCO1 (mixture of isomers) :: 5.50

Okay, now this compound:
Query: Recorded pIC50 for `N[C@@H]1CCCN(c2nc3ccccc3n2Cc2ccc(-n3cncn3)cc2)C1` , please?
Reply: 5.17

====

Biological target: UniProt Q9Y210
Experiment: TRPC6 calcium flux assay (FLIPR, OAG-stimulated calcium influx)
Conditions: HEK293 cells stably transfected with human TRPC6, read-out: hTRPC6 Potency
pIC50: −log10 of the molar value.
Short version: pIC50 at least 7 is YES, less is NO.

// below: answered compounds
N#Cc1ccc(Cn2c(N3CC[C@@H](F)[C@H](N)C3)nc3ccc(C#N)cc32)cc1 :: YES
CN(CC#N)C(=O)Cn1c(N2CC[C@@H](F)[C@H](N)C2)nc2cc(F)c(F)cc21 :: YES
N[C@@H]1CN(c2nc3ccc(F)cc3n2CC(=O)N[C@@H]2CCOC2)CC[C@H]1F :: NO
CN(C(=O)Cn1c(N2CC[C@@H](F)[C@H](N)C2)nc2cc(F)c(F)cc21)C(C)(C)C#N :: NO
Cc1nnc(Cn2c(N3CC[C@@H](F)[C@H](N)C3)nc3cc(F)cc(F)c32)s1 :: NO

Note: attention shifts to another entry.
Query: Reported pIC50 reaches at least 7 for `CN1CC[C@@H](n2c(N3CC[C@@H](F)[C@H](N)C3)nc3cc(F)c(F)cc32)C1=O` ?
Reply: NO
